Cited source for all entries: patent US6486175B1

Assay: Bioavailability in Cynomolgus Monkeys: plasma pharmacokinetics of Compound A after i.v./p.o. dosing
Settings: female, cynomolgus monkey, in vivo, iv, 1 mg/kg

{"compound": "O=C(O)c1ccc(C[C@H]2CC[C@H]3CN[C@H](C(=O)O)C[C@H]3C2)cc1 [Compound A]", "clearance, mL/min/kg": 14}

----------
Assay: Bioavailability in Dogs: plasma pharmacokinetics of Compound A after i.v./p.o. dosing
Type: in vivo
Conditions: both sexes, dog, iv, Beagle dogs, 10 mg/kg

{"item-smiles": "O=C(O)c1ccc(C[C@H]2CC[C@H]3CN[C@H](C(=O)O)C[C@H]3C2)cc1", "AUC": "41400 ng·h/mL"}
